Biological target: T1, Human OSCAR (osteoclast-associated receptor), full length, on cells (human)
T1 chain: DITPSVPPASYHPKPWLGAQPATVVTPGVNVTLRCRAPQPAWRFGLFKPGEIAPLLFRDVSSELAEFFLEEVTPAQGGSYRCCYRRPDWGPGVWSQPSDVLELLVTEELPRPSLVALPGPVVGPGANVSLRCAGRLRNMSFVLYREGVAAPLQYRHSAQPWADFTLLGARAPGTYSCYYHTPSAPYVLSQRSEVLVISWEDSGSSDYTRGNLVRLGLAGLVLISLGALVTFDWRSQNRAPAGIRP
Test: cell-based or functional assay
// values below are reported IC50 (IL-8), ColI-induced IL-8 release from moDC, Donor 4
Reported property: IC50 (IL-8), ColI-induced IL-8 release from moDC, Donor 4 (pM)

Binder	Readout value
16F56 (antibody, V domains shown, Fully human mAb from HuMab mice; also called 16F56 (Hu); 16F56A2) VH: QVQLVQSGAEVKKPGSSVKVSCKASGGTFSNYAISWVRQAPGQGLEWMGRIIPILGIAHNAQKFQDRVTITADKSTSTAYMELSSLRSEDTAVYYCASPSSGKGLPYWFFDLWGRGTLVTVSS VL: DIQMTQSPSFLSASVGDRVTITCRASQSISSYLNWYQQKPGKAPKLLIYAASSLQSGVPSRFSGSGSGTDFTLTISSLQPEDFATYYCQCGYSTPLTFGGGTKVEIKR	60
6F6B (antibody, V domains shown, Mouse anti-OSCAR mAb) VH: EVQLQQSGAELVKPGASVKLSCTASGFNIKDTYVHWVKQRPDQGLEWIGRIDPAIGNTKYDPKFRGKATITADSSSNTAYLQLSSLTSEDTAVYYCARLSYGNYGLDYSMDYWGQGTSVTVSS VL: DIVLTQSPATLSVTPGDSVSLSCRASQSITNNLHWYQQKSHESPRLLIKYASQSISGIPSRFRGSGSGTDFTLSINSVETEDFGVYFCQQSNTWPRTFGGGTKLEIKR	860
7F21A1 (antibody, V domains shown, Mouse anti-human OSCAR mAb; The heavy chain entry covers only VH-CH1 and the start of the hinge) VH: QVQLQQSGAELVRPGTSVKVSCRSSGYAFTNYLIEWIKQRPGQGLEWIGVITPGSGGTNYNENFKDKATLTADKSSNTAYMQLTSLTSDDSAVYFCARSFDYDGAWFAYWGQGTLVTVSA VL: DIQMTQSPASLSVSVGETVTITCRASEKIYSNLAWYQQKQGKSPQLLVYAATNLADGVPSRFSGSGSGTQFSLKINNLQSEDFGSYYCQHFWGTPWTFGGGTKLEIKR	110
7F10A1 (antibody, V domains shown, Mouse anti-human OSCAR mAb; The heavy chain entry covers only VH-CH1 and the start of the hinge) VH: QVQLQQSGAELARPGASVKLSCKASGYTFTDNYINWVKQRTGQGLEWIGEIYPGSGNTYYNEKFKGKATLTADKSSSTAYMQLSSLTSEDSAVYFCARSANRYDRGDFDYWGQGTPLTVSS VL: QILLTQSPAIMSASPGEKVTMTCSASSSVSYMHWYQQKPGSSPKPWIYDTSNLASGFPARFSGSGSGTSYSLIISSMEAEDAATYYCHQRSSYPYTFGGGTKLEIKR	2060
